Origin of measurements: patent US20240270821A1

Molecular target: hGLP-1R (Homo sapiens)
Sequence (P43220 24-463): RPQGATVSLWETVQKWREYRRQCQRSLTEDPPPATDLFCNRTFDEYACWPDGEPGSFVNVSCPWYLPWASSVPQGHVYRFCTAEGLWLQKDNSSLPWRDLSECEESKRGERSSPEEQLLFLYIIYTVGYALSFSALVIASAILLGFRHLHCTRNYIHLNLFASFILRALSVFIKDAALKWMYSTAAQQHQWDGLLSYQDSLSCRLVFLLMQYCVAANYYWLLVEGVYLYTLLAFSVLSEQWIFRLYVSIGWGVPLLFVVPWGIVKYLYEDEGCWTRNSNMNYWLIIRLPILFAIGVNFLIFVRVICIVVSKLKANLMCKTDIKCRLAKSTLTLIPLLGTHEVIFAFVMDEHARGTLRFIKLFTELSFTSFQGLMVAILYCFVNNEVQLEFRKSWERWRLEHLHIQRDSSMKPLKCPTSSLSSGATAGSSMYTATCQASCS
Assay: Functional cAMP activity in the presence of 1% HSA
Assay type: cell-based
Conditions: read-out: cAMP Rel EC50, hGLP-1R
Starred links: 1 amine or outer side, 2 acyl side, 3 side chain; linkers in the order of their positions; H or OH if unused. Non-standard residues stand in square brackets, D forms with d. Groups on a side chain read outwards from the residue. *: point of attachment. C18 diacid = O=C(O)CCCCCCCCCCCCCCCCC(=O)*; αMePhe(2-F) = C[C@](N)(Cc1ccccc1F)C(=O)O; γGlu = O=C(O)[C@H](CCC(=O)[*:2])N[*:1]; αMe4Pal = C[C@](N)(Cc1ccncc1)C(=O)O; αMeY = C[C@](N)(Cc1ccc(O)cc1)C(=O)O; 4Pal = N[C@@H](Cc1ccncc1)C(=O)O; αMeL = CC(C)C[C@](C)(N)C(=O)O; αMeS = C[C@](N)(CO)C(=O)O; Orn = NCCC[C@H](N)C(=O)O; AEEA = NCCOCCOCC(=O)O; Aib = CC(C)(N)C(=O)O
assay-endpoint: pEC50
Numbers only, as −log10 of the molar value.

State the recorded pEC50 for every item in the following list.
1. H-Y[Aib]QGT[αMePhe(2-F)]TSD[4Pal][αMeS]I[αMeL]LD[Orn]K([AEEA-γGlu-C18 diacid])AQ[Aib][Orn]FIEYLIEGGPSSGEPPPEEG-NH2 [Example 476]
2. H-Y[Aib]QGT[αMePhe(2-F)]TSD[4Pal]SI[αMeL]LD[Orn]K([AEEA-γGlu-C18 diacid])AQ[αMe4Pal]EFI[dE][αMeY]LLEGGPSSGEPPPSGS-NH2 [Example 645]
3. H-Y[Aib]QGTFTSDFS[Orn][αMeL]LDKK([AEEA-γGlu-C18 diacid])AQ[Aib]AFIEYLLE[dA]GPSSGAPPPSGS-NH2 [Example 209]
4. H-Y[Aib]QGTFTSDFS[Orn][αMeL]LDKK([γGlu-γGlu-C18 diacid])AQ[Aib]AFIEYLLEGGPSSG[Aib]PPPGGS-NH2 [Example 771]

Reply:
1: 7.84; 2: 7.12; 3: 6.56; 4: 6.18
